# system.under.test: T1, human GLP-2 receptor (human, UniProt O95838 1-553)
# T1 sequence (looked up): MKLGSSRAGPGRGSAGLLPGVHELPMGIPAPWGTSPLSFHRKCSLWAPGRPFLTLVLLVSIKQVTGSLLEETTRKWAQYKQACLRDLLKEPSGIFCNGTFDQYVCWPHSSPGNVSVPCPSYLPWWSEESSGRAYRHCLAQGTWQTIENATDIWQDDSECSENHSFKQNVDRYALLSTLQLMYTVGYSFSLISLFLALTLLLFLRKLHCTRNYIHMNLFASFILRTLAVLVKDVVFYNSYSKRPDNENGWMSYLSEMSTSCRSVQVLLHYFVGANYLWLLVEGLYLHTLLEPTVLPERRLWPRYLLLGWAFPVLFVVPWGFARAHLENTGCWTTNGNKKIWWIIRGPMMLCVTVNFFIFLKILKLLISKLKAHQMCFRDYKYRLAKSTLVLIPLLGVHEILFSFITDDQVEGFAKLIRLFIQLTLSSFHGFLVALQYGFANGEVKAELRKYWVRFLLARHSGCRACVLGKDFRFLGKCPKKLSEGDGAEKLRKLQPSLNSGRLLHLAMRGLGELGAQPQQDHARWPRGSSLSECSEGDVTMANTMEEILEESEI
# test: cell-based or functional assay
So basically: is logEC50 (cAMP) under -7? Then yes. Not under? Then no.

Problem: For the binder HAEGSFISDYSTILDNLAARDFINWLIQTKITD [GIP-GLP-2 co-agonist 4] , is logEC50 (cAMP) under -7?
yes

Problem: For the binder HAEGTFISDYSIAMDKLAARDFINWLIQTKITD [GIP-GLP-2 co-agonist 7] , is logEC50 (cAMP) under -7?
no

Problem: For the binder HAEGTFISDMNTILDNLAARDFINWLIQTKITD [GIP-GLP-2 co-agonist 6] , is logEC50 (cAMP) under -7?
yes

Problem: For the binder HAEGTFISDYSTILDNIHQQDFINWLIQTKITD [GIP-GLP-2 co-agonist 8] , is logEC50 (cAMP) under -7?
no

Problem: For the binder HADGTFIDDYSTILDNLAARDFINWLIQTKITD [GIP-GLP-2 co-agonist 14] , is logEC50 (cAMP) under -7?
yes
